The compounds listed here are annotated with their JAK2/JAK1 IC50 ratio.
molecular target: Jak2 (a.a. 828-1132) (Homo sapiens, UniProt O60674); construct: Jak2 (a.a. 828-1132); His tag (N); made in house; host or cells: insect cells (baculovirus); test: In vitro JAK kinase assay (HTRF, phosphorylation of a biotinylated peptide), JAK2, reported as JAK2/JAK1 ratio; type: biochemical; conditions: Assay Conditions 1 mM ATP
Sequence (O60674 828-1132): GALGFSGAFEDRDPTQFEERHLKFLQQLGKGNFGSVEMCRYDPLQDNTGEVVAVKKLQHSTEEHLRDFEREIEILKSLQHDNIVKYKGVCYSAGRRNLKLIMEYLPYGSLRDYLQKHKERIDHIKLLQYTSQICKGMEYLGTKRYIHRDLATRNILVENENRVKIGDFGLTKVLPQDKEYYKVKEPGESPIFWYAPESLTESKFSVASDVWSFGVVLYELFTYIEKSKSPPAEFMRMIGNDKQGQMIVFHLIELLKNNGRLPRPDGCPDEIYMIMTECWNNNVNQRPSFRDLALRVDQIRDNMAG
Result Type: JAK2/JAK1 IC50 ratio

compound="N#CCC(C1CCN(c2scc(C#N)c2C#N)C1)n1ccc(-c2ncnc3[nH]ccc23)c1 (single isomer, unassigned) [81 enantiomer 1]" result_type="JAK2/JAK1 IC50 ratio" recorded_value=40.0
compound="N#CCC(C1CCN(c2ncc3ccsc3c2C#N)C1)n1ccc(-c2ncnc3[nH]ccc23)c1 (racemic)" result_type="JAK2/JAK1 IC50 ratio" recorded_value=53.3
compound=CS(=O)(=O)c1ccnc(N2CC[C@H]([C@H](CC#N)n3cc(-c4ncnc5[nH]ccc45)cn3)C2)c1C#N result_type="JAK2/JAK1 IC50 ratio" recorded_value=4.7

----------
molecular target: Jak2 (a.a. 828-1132) (Homo sapiens); construct: Jak2 (a.a. 828-1132); His tag (N); made in house; host or cells: insect cells (baculovirus); assay: In vitro JAK kinase assay (HTRF, phosphorylation of a biotinylated peptide), JAK2, reported as JAK2/JAK1 ratio; assay type: biochemical; settings: Assay Conditions Km (ATP 90 μM for Jak1, 30 μM for Jak2)
Structures can show the parent of a compound that is named as a salt.
Result Type: JAK2/JAK1 IC50 ratio

compound="N#CCC(C1CCN(c2ncc3cccc(Cl)c3n2)C1)n1cc(-c2ncnc3[nH]ccc23)cn1 (stereo not drawn) [Example 44, trifluoroacetate salt]" result_type="JAK2/JAK1 IC50 ratio" recorded_value=3
compound="N#CCC(C1CCN(c2nc(Br)cs2)C1)n1cc(-c2ncnc3[nH]ccc23)cn1 (stereo not drawn) [Example 5, trifluoroacetate]" result_type="JAK2/JAK1 IC50 ratio" recorded_value=2.2
compound="N#CCC(C1CCN(c2nc3cccnc3o2)C1)n1ccc(-c2ncnc3[nH]ccc23)c1 (single isomer, unassigned) [32, Step 2b (racemate)]" result_type="JAK2/JAK1 IC50 ratio" recorded_value=0.2
compound="N#CCC(C1CCN(c2nc3ccccc3o2)C1)n1cc(-c2ncnc3[nH]ccc23)cn1 (single isomer, unassigned) [9, Step 3a]" result_type="JAK2/JAK1 IC50 ratio" recorded_value=1.9
compound="N#CCC(C1CCN(c2ccc3cccc(Cl)c3n2)C1)n1cc(-c2ncnc3[nH]ccc23)cn1 (racemic) [Example 42]" result_type="JAK2/JAK1 IC50 ratio" recorded_value=6.0
compound="N#CCC(C1CCN(c2nc3cccnc3o2)C1)n1ccc(-c2ncnc3[nH]ccc23)c1 (single isomer, unassigned) [32, Step 2a, enantiomer 1]" result_type="JAK2/JAK1 IC50 ratio" recorded_value=3.7

----------
target: human JAK1 (a.a. 837-1142) (Homo sapiens, UniProt P23458); construct: human JAK1 (a.a. 837-1142); His tag (N); made in house; host or cells: insect cells (baculovirus); assay: In vitro JAK kinase assay (HTRF, phosphorylation of a biotinylated peptide), JAK1; format: biochemical; details: Assay Conditions 1 mM ATP
Sequence (P23458 849-1154): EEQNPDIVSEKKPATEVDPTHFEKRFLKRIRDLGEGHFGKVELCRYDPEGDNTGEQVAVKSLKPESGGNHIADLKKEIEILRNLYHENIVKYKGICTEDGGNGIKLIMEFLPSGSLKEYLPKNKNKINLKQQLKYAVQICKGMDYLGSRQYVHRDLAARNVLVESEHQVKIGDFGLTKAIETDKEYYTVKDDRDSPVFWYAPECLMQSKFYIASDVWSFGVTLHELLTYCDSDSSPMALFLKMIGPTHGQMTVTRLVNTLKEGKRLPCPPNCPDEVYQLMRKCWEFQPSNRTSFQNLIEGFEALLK
The compounds listed here are annotated with their IC50.
Result Type: IC50

compound="N#CCC(n1cc(-c2ncnc3[nH]ccc23)cn1)C1(F)CCN(c2nc3cccnc3o2)C1 (single isomer, unassigned) [31, Step 4a, enantiomer 2]" recorded_value="50 to 100 nM"
compound="CCOc1cccc2nc(N3CCC(C(CC#N)n4cc(-c5ncnc6[nH]ccc56)cn4)C3)oc12 (single isomer, unassigned)" recorded_value="< 50 nM"
compound="COc1cccc2nc(N3CCC(C(CC#N)n4cc(-c5ncnc6[nH]ccc56)cn4)C3)oc12 (single isomer, unassigned)" recorded_value="< 50 nM"
compound="N#CCC(C1CCN(c2ccc3c(n2)[S+]([O-])CC3)C1)n1ccc(-c2ncnc3[nH]ccc23)c1 (stereo not shown)" recorded_value="< 50 nM"
